Recorded values, source ChEMBL document CHEMBL5537136.

TESTED_TARGET: Cytochrome P450 2C9 (Homo sapiens)
Sequence (P11712 whole entry): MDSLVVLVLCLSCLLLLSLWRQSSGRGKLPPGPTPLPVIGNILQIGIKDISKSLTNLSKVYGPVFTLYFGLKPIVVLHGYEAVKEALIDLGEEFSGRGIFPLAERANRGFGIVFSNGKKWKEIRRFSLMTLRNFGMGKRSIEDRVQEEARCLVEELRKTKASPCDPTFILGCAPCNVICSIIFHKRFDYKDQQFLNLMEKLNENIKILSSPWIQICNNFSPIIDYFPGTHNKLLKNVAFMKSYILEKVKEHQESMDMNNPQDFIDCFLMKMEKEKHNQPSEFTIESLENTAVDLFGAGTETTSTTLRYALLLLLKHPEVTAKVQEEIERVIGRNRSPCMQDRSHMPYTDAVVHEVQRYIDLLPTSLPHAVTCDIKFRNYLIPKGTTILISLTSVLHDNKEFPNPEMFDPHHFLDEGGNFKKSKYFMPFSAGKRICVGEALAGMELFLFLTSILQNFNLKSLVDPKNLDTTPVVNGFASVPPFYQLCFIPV
pIC50: −log10 of the molar value.
ASSAY_READOUT: pIC50

For C[C@@H](COCCC(=O)N1CCN(c2ncc(C(F)(F)F)cn2)CC1)Nc1cn[nH]c(=O)c1C(F)(F)F , what is its reported pIC50?
< 4.52

For C[C@@H](C(=O)N1CCN(c2ncc(C(F)(F)F)cn2)CC1)n1cc2cccc(C(N)=O)c2n1 , what is its reported pIC50?
< 4.52

* * *

METHOD_DESCRIPTION: Permeability across basolateral to apical side in human Caco-2 cells
Type: ADME, cell-based
Recorded Papp B→A by entry
Number in ×10⁻⁶ cm/s, nothing else.

INSERT INTO assay_data (molecule_smiles, recorded_number) VALUES
  ('C[C@@H](COCCC(=O)N1CCN(c2ncc(C(F)(F)F)cn2)CC1)Nc1cn[nH]c(=O)c1C(F)(F)F', 24);

Now look at this one.
For C[C@@H](C(=O)N1CCN(c2ncc(C(F)(F)F)cn2)CC1)n1cc2cccc(C(N)=O)c2n1 , what is its reported Papp B→A?
20.7
